# test_system: T1, human LAG3 expressed on cells (human, UniProt P18627 23-525)
# T1 sequence (looked up): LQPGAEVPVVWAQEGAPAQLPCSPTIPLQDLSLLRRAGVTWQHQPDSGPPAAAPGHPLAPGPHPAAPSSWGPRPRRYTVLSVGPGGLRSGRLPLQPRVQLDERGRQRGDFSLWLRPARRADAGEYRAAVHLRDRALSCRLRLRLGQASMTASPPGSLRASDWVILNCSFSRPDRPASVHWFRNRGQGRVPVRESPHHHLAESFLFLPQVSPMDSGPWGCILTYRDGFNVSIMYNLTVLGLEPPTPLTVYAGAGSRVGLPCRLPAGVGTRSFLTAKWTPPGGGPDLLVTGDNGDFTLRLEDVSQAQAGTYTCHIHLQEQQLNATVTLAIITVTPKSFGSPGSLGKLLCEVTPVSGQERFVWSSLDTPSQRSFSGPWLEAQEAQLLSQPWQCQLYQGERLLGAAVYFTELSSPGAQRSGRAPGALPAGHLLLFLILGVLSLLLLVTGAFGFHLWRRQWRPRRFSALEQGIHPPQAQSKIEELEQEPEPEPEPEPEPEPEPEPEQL
# assay_comment: cell-based or functional assay
property: IL-2, % of BMS, at 3.703703704 ug/mL (%)
All answers are understood in %, so give the number only.

Solved cases below.
binder="sdAb No. 27 (VHH, Fc of the tested form not described; also called sdAb 27; not shown: Fc part implied by anti-human Fc capture and anti-human IgG Fc detection) VHH: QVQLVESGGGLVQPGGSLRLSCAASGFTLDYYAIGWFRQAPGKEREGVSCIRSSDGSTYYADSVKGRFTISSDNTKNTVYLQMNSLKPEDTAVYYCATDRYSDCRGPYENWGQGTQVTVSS" measured_value=43.4
binder="sdAb No. 21 (VHH, Fc of the tested form not described; also called sdAb 21; not shown: Fc part implied by anti-human Fc capture) VHH: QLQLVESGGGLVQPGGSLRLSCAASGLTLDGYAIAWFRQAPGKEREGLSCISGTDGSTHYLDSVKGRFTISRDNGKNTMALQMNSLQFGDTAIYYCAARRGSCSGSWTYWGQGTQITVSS" measured_value=32.8

query: What value of IL-2, % of BMS, at 3.703703704 ug/mL has been recorded for this entry: sdAb No. 1 (VHH, the tested form was captured by anti-human Fc, its Fc is not described; also called sdAb 1; not shown: Fc part implied by anti-human Fc capture) VHH: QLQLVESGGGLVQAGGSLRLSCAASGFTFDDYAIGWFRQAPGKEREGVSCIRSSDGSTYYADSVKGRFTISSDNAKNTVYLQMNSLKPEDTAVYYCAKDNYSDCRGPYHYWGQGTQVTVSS
result: 46.4

query: What value of IL-2, % of BMS, at 3.703703704 ug/mL has been recorded for this entry: sdAb No. 25 (VHH, Fc of the tested form not described; also called sdAb 25; sdAb #25; not shown: Fc part implied by anti-human Fc capture and anti-human IgG Fc detection) VHH: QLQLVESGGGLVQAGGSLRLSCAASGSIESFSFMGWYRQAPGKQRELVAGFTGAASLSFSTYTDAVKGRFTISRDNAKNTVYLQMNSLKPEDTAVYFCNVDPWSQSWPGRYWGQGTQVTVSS
result: 30.6
